testedOn: human GABAA α2β2γ1 receptor (Homo sapiens (Human), UniProt P47869+Q8N1C3)
assayComment: Radioligand binding assay for γ1-containing GABAA subtypes, [3H]RO7239181 competition (α2β2γ1)
conditionLabel: Ki h-GABAA α2β2γ1, [3H]RO7239181 competition binding, human GABAA α2β2γ1
readout: pKi
Give bare numbers, as −log10 of the molar value.

Would you please look over these solved cases?
# compound, readout, reading
measured = [
    ("C[C@@H]1N=C(c2ncccc2F)c2c(ccc(C(F)(F)F)c2Cl)-n2nc(NC(=O)NC3COC3)nc21 [Example 146]", "pKi", 7.44),
    ("C[C@@H]1N=C(c2ncccc2F)c2c(ccc(C(F)(F)F)c2Cl)-n2cc(C(=O)NCC3(O)CC3)nc21 [Example 164]", "pKi", 7.45),
    ("[2H]C([2H])([2H])NC(=O)c1nc2n(n1)-c1ccc(C(F)(F)F)c(Cl)c1C(c1c(F)cccc1F)=N[C@H]2C [Example 34]", "pKi", 7.84),
    ("CN(C)C(=O)c1nc2n(n1)-c1ccc(Cl)c(Cl)c1C(c1c(F)cccc1F)=NC2 [Example 9]", "pKi", 8.26),
    ("Fc1cccc(F)c1C1=NCc2nc(C(F)F)cn2-c2ccc(Br)c(Cl)c21 [Example 3]", "pKi", 7.52),
]

I'm hoping you can list pKi for every compound here, please.
1. Cc1c(C(=O)NC[C@@H](C)O)nc2n1-c1ccc(C(F)(F)F)c(Cl)c1C(c1ncccc1F)=N[C@H]2C [Example 162]
2. C[C@@H]1N=C(c2ncccc2F)c2c(ccc(Cl)c2Cl)-n2nc(C(=O)N3CC4(CCOC4)C3)nc21 [Example 100]

Out:
1: 7.26; 2: 7.38
